- ASSAY COMMENT: logP by HPLC on a C18 phase inversion column, EEC Directive 79/831 Annex V.A8, method a) (Agilent 1100, 10-95% acetonitrile in 4.25 min)
- Assay type: physicochemical
- APPLIED CONDITIONS: HPLC method a), eluent acetonitrile/water with formic acid; read-out: logP
MEASUREMENT LABEL: chromatographic logP
Form: value (number only, do not type unit).

> print(dat)
                               given.smiles     measurement.label  observed.result
1          Cn1ccc(C(F)(F)C(F)(F)C(F)(F)F)n1  chromatographic logP             2.84
2  Cn1nc(C(F)(F)C(F)(F)C(F)(F)C(F)(F)F)c(Br)c1C(=O)O  chromatographic logP             3.17
3  CCOC(=O)c1cnc(C(F)(F)C(F)(F)C(F)(F)F)nc1C(F)(F)F  chromatographic logP             4.32
4  Cn1nc(C(F)(F)C(F)(F)C(F)(F)C(F)(F)F)cc1C(=O)O  chromatographic logP             3.01
5  Cn1nc(C(F)(F)C(F)(F)F)c(C(F)(F)F)c1C(=O)O  chromatographic logP             1.86

Exercise: Which measured chromatographic logP value corresponds to Cn1cc(Br)c(C(F)(F)C(F)(F)C(F)(F)F)n1 ?
Solution: 3.53

Exercise: Consider the compound shown here: O=C(O)c1cnc(C(F)(F)C(F)(F)C(F)(F)F)nc1C(F)(F)F What is its recorded chromatographic logP?
Solution: 2.23

Exercise: What value of chromatographic logP has been reported for the following compound? Cn1nc(C(F)(F)C(F)(F)C(F)(F)F)c(Br)c1C(=O)O
Solution: 2.26

Exercise: Give the measured chromatographic logP of Cn1ccc(C(F)(F)C(F)(F)C(F)(F)C(F)(F)F)n1 .
Solution: 3.38

###

Below, each of the compounds is paired with its reported logP value.
- ASSAY COMMENT: physchem
- Assay type: physicochemical

> print(dat)
                                    compound  observed.result
 1  Cn1nc(C(F)(F)C(F)(F)F)c(C(F)(F)F)c1C(=O)Nc1ccc([N+](=O)[O-])c(C(=O)NCC(F)(F)F)c1          3.58^a)
 2  CCN(CC)C(=O)COC(=O)c1cc(NC(=O)c2c(C(F)(F)F)c(C(F)(F)C(F)(F)F)nn2C)ccc1Cl          4.11^a)
 3  CCOC(=O)c1cc(NC(=O)c2c(C(F)(F)F)c(C(F)(F)C(F)(F)F)nn2C)ccc1Cl          4.42^a)
 4  Cn1nc(C(F)(F)C(F)(F)F)c(C(F)(F)F)c1C(=O)Nc1ccc(I)c(C(=O)NC2CC2)c1          3.45^a)
 5  Cn1nc(C(F)(F)C(F)(F)F)c(C(F)(F)F)c1C(=O)Nc1ccc(Br)c(C(=O)NCc2ccccc2)c1          4.03^a)
 6  Cn1nc(C2CC2)c(Br)c1C(=O)Nc1ccc(Cl)c(C(=O)NC2CC2)c1          2.60^a)
 7  Cn1nc(OC(F)F)c(Br)c1C(=O)Nc1ccc(Cl)c(C(=O)NC2CC2)c1          2.51^a)
 8  Cn1nc(C(F)(F)C(F)(F)F)c(C(F)(F)F)c1C(=O)Nc1cc(Br)cc(C(=O)NCc2ccccc2)c1          4.35^a)
 9  O=C(NCC(F)(F)F)c1cc(NC(=O)c2cnc(C(F)(F)C(F)(F)F)nc2C(F)F)ccc1Cl          3.27^a)
10  CN(C(=O)c1c(C(F)(F)F)c(C(F)(F)C(F)(F)F)nn1C)c1ccc(Cl)c(C(=O)NCc2ccccc2)c1          3.94^a)

Exercise: Entry under review: Cn1nc(OC(F)F)c(Cl)c1C(=O)Nc1ccc(Cl)c(C(=O)NC2CC2)c1 . Reported logP?
Solution: 2.52^a)

Exercise: Look at this compound and give its reported logP. O=C(NC1CC1)c1cc(NC(=O)c2[nH]nc(C(F)(F)F)c2C(F)(F)F)ccc1Cl
Solution: 2.55^a)

###

- ASSAY COMMENT: physchem
- Assay type: physicochemical
Some compounds, each annotated with its measured logP.

Examples with their reported logP follow.
> print(dat)
                                   compound  measurement.label  observed.result
1  Cc1nc(C(F)(F)C(F)(F)F)nc(C)c1C(=O)Nc1ccc(Cl)c(C(=O)NC2CC2)c1               logP          2.82^a)
2  CC(C)CNC(=O)c1cc(NC(=O)c2c(C(F)(F)F)c(C(F)(F)C(F)(F)F)nn2C)ccc1Cl               logP          3.90^a)
3  Cn1nc(C(F)(F)C(F)(F)F)c(C(F)(F)F)c1C(=O)Nc1ccc(Cl)c(C(=O)NS(C)(=O)=O)c1               logP          3.13^a)

Exercise: Query (compound): CNC(=O)c1cc(NC(=O)c2ccc(C(F)(F)F)nc2C)ccc1Cl ; field requested: logP
Solution: 1.97^a)

###

- ASSAY COMMENT: physchem
- Assay type: physicochemical
MEASUREMENT LABEL: logP

Sample answers from the record:
> print(dat)
                                   compound  observed.result
1  Cn1nc(C(F)F)c(C(F)(F)F)c1C(=O)Nc1ccc(Cl)c(C(=O)NC2CC2)c1          2.46^a)
2  Cn1nc(C(F)(F)C(F)(F)F)c(C(F)(F)F)c1C(=O)Nc1ccc(F)c(C(=O)NC2CC2F)c1 (stereo not shown)          3.35^a)
3  Cn1nc(C(F)(F)C(F)(F)F)c(C(F)(F)F)c1C(=O)Nc1ccc(Br)c(C(=O)NCC(F)(F)F)c1          3.77^a)
4  O=C(NC1CC1)c1cc(NC(=O)c2cnc(C(F)(F)C(F)(F)F)nc2C2CC2)ccc1Cl          3.28^a)
5  COCn1nc(C(F)(F)C(F)(F)F)c(C(F)(F)F)c1C(=O)Nc1ccc(Cl)c(C(=O)NC2CC2)c1          3.50^a)
6  Cn1nc(C(F)(F)C(F)(F)F)c(C(F)(F)F)c1C(=O)Nc1cc(Cl)cc(C(=O)NC2CC2)c1Cl          3.78^a)
7  Cn1nc(C(F)(F)C(F)(F)C(F)(F)C(F)(F)F)cc1C(=O)Nc1ccc(Cl)c(C(=O)NC2CC2)c1          3.74^a)
8  CC(C)NC(=O)c1cc(NC(=O)c2ccc(C(F)(F)F)nc2Cl)ccc1Cl          2.68^a)

Exercise: Reported logP for Cn1nc(-c2cc(C(F)(F)F)cc(C(F)(F)F)c2)c(C(F)(F)F)c1C(=O)Nc1ccc(Cl)c(C(=O)NC2CC2)c1 : what is it?
Solution: 4.19^a)

Exercise: What value of logP has been reported for the following compound? O=C(NCc1ccccc1)c1cc(NC(=O)c2nccc(C(F)(F)F)c2Cl)ccc1Cl
Solution: 3.16^a)

Exercise: Look at this compound and give its reported logP. COCN(C(=O)c1c(C(F)(F)F)c(C(F)(F)C(F)(F)F)nn1C)c1ccc(Cl)c(C(=O)NC2CC2)c1
Solution: 3.51^a)

Exercise: logP for CNC(=O)c1cc(NC(=O)c2ccc(C(F)(F)F)nc2Cl)ccc1Cl ?
Solution: 2.16^a)

Exercise: Dear colleague, I am looking for the recorded logP of the following compound: Cn1nc(C(F)(F)C(F)(F)F)c(C(F)(F)F)c1C(=O)Nc1cc(C(=O)NCC(F)(F)F)c(Cl)cn1
Solution: 3.61^a)

Exercise: Requested read-out: logP. Entry: Cn1nc(C(F)(F)F)c(Cl)c1C(=O)Nc1ccc(Cl)c(C(=O)NCC=CCl)c1
Solution: 3.22^a)

Exercise: Would you kindly share the measured logP for Cn1nc(C(F)(F)C(F)(F)F)c(C(F)(F)F)c1C(=O)Nc1ccc(F)c(C(=O)NC2CC2)c1 ?
Solution: 3.31^a)

Exercise: Requested field: logP. Item: Cn1nc(OCC(F)(F)F)c(I)c1C(=O)Nc1ccc(Cl)c(C(=O)NCC(F)(F)F)c1
Solution: 3.24^a)

###

- ASSAY COMMENT: physchem
- Type: physicochemical
- Method: ^a) Note regarding the determination of the log P values and mass detection: The log P values given were determined in accordance with EEC Directive 79/831 Annex V.A8 by HPLC (High Performance Liquid Chromatography) on a phase inversion column (C18). […]
MEASUREMENT LABEL: logP

Below are worked cases with known answers.
> print(dat)
                               given.smiles  observed.result
1  Cn1nc(C(F)(F)C(F)(F)F)cc1C(=O)Nc1ccc(Cl)c(C(=O)NC2CC2)c1          2.94^a)
2  Cn1nc(C(F)(F)C(F)(F)F)c(C(F)(F)F)c1C(=O)Nc1cc(Br)cc(C(=O)NC2CC2)c1          3.74^a)
3  Cn1nc(-c2cc(C(F)(F)F)cc(C(F)(F)F)c2)c(C(F)(F)F)c1C(=O)Nc1ccc(Cl)c(C(=O)NCC(F)(F)F)c1          4.46^a)

# context switch: different molecule, same logP
Exercise: Param item = C=CCNC(=O)c1cc(NC(=O)c2c(C(F)(F)F)c(C(F)(F)C(F)(F)F)nn2C)ncc1Cl ; retrieve measured logP.
Solution: 3.38^a)
